This collection of values is drawn from the supplement of paper PMC8728848.

- study_target: Fuc(a1-2)[Gal(a1-3)]Gal(b1-4)GlcNAc
- assay_info: glycan array binding signal (z-score within array); higher = stronger binding
- test_settings: glycan notation: IUPAC condensed, linker removed
This is one part of a sample in which the strongest signals are shown more often than they occur.
property_name: glycan array binding signal (z-score)
Keep it simple and answer with nothing but the number.

Consider the following illustrative entries.
binder: OVGAL11 (Ovis aries), AAF64320 (protein) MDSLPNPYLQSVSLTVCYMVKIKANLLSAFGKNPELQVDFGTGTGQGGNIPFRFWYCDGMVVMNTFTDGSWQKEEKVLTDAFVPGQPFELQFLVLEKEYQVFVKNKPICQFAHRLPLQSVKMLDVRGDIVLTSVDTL
numeric_readout: 0.2
--
binder: MGL2 (Mus musculus), Q8JZN1 (protein) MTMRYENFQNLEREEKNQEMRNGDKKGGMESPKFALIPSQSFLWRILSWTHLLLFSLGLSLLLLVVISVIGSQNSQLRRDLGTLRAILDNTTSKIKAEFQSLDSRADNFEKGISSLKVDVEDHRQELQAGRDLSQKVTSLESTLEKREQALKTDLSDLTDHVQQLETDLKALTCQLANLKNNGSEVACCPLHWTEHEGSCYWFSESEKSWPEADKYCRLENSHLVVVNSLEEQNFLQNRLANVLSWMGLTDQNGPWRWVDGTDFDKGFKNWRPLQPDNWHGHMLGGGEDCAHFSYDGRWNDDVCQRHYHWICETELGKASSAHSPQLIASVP
numeric_readout: -0.162

// below: glycan array binding signal (z-score) requested for another binder
Lab note: measured glycan array binding signal (z-score) of Gal 8 (Mus musculus), Q9JL15 (protein) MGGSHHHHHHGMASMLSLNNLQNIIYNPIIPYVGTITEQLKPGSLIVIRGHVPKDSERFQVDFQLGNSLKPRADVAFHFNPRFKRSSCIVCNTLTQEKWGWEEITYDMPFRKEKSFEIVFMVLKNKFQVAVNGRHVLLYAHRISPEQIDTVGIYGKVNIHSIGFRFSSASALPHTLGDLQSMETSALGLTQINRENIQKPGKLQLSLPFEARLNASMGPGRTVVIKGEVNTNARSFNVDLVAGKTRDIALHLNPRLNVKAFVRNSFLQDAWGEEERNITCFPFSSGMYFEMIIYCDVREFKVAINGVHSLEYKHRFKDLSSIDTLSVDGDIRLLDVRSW was 3.76
